src = the domain aggregation screens of Martell et al. (2025)

Method description: soluble fraction after stress (log2 fold change); higher = more stays soluble; pooled small domains, quantitative proteomics
Setup conditions: stress: pH 4
soluble fraction (log2) vs -0.2: at or above is 1.0, below is 0.0.

Inquiry: Textbook exercise: given the entry HMTGINMSYEEYKAMADIIVPLIKAGHSPYHIVTNHPELNISEKTLYNYIENGIFREFGLLDINL , state whether its soluble fraction (log2) is greater than or equal to -0.2.
Reply text: 0.0

Inquiry: Textbook exercise: given the entry HMISADSSKVDTLVQVYSNMKPIQAAQVFEKMDEDLVIEILSRMKKKNAADILNLIKTEKAQVFAEKYA , state whether its soluble fraction (log2) is greater than or equal to -0.2.
Reply text: 1.0

Inquiry: Textbook exercise: given the entry HMRTAELEVWDDDELNDVVKLIQNNHNINTLKLRFQENVSFSGLSLIAAVLTKQSIILEIEY , state whether its soluble fraction (log2) is greater than or equal to -0.2.
Reply text: 0.0

Inquiry: Textbook exercise: given the entry HMNITHEINVKSKSKIDFLENNKNLAQFFLTKNPNQFNYNLVFSDKSELNIIKEKIESHKDIEDIDIRYG , state whether its soluble fraction (log2) is greater than or equal to -0.2.
Reply text: 0.0

Inquiry: Textbook exercise: given the entry HMDTNEPFAQLQLRFTDPIQYDYEVIRPVVLFSQSVTDRSDETEMPRTTVREKARQFVTEGMLGLVDK , state whether its soluble fraction (log2) is greater than or equal to -0.2.
Reply text: 0.0

Inquiry: Textbook exercise: given the entry HMKAGEDAVQKAVLEAVAESAAAVADYKAGSERALNFIVGKVMKKTRGKASAAEVHRLVREEVDR , state whether its soluble fraction (log2) is greater than or equal to -0.2.
Reply text: 1.0

Inquiry: Textbook exercise: given the entry HMKADIEQVQRAFDTLDPKNQQLVLDAMKAATAELDPNSDQFKTNTEFINDNQKALDRHAKAS , state whether its soluble fraction (log2) is greater than or equal to -0.2.
Reply text: 1.0

Inquiry: Textbook exercise: given the entry HMNGEAQTMYVTARTLNVRKGPGTSYAKAGTLSRGTAVQVVGFSGNWAKLSNGYYVSTSYLAKI , state whether its soluble fraction (log2) is greater than or equal to -0.2.
Reply text: 1.0
